# pIC50 measurements, system: leucocyte 5-lipoxygenase (Rattus norvegicus)
# Sequence (P12527 whole entry): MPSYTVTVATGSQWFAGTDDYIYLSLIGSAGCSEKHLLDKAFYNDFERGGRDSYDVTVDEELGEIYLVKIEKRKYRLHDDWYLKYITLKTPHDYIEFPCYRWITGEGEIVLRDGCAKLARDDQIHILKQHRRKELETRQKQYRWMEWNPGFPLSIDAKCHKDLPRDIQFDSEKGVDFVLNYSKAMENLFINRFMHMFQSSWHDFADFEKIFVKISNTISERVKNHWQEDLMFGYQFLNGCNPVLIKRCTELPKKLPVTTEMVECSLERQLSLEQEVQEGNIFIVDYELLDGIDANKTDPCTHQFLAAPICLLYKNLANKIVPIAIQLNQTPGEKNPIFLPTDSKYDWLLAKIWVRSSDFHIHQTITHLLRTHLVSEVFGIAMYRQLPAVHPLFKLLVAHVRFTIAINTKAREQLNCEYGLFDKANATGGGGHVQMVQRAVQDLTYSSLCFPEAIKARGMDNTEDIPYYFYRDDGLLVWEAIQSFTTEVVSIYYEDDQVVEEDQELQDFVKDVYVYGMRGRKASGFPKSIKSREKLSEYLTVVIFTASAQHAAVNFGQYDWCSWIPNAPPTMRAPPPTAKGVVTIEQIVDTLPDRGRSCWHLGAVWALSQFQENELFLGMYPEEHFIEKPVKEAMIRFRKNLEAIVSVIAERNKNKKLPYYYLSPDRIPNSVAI
One number for each entry, as −log10 of the molar value.

Please supply pIC50 for each of the following items, keeping them in order.
1. CCCCCCCCCCCC(=O)N(O)CCCN1C(=O)CCC1=O
2. CCCCCCCCCCCC(=O)N(O)CCCCCN1C(=O)c2ccccc2C1=O
3. CCCCCCCCCCCC(=O)N(O)CCCCCCCN1C(=O)CCC1=O

1. 7.70
2. 7.40
3. 7.70
